Target: Human recombinant MMP-2 (Homo sapiens, UniProt P08253)
Construct: made in house; host or cells: MMP-2-transfected p2AHT2 cells
Sequence (P08253 110-660): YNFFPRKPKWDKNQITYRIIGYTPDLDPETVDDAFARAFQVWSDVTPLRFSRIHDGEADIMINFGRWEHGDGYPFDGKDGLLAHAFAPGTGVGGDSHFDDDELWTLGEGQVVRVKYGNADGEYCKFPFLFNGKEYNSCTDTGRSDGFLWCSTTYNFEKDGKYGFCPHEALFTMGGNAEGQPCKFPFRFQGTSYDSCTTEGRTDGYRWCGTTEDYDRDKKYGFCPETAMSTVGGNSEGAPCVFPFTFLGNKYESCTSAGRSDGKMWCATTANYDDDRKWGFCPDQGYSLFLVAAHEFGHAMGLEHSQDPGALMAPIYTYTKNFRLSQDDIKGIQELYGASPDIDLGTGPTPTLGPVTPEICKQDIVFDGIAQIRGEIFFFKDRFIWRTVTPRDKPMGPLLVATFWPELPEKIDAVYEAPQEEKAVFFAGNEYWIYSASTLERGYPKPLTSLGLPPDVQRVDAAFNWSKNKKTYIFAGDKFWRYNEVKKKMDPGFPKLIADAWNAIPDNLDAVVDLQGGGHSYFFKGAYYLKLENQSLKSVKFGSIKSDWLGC
Assay: In vitro MMP inhibition, Ki determination (fluorogenic substrate II)
Assay type: biochemical
Conditions: value in parenthesis
PARAMETER_MEASURED: Ki (nM)

COMPOUND: COCCN1CCC(C(=O)NO)(S(=O)(=O)c2ccc(OCCCc3nc(-c4ccc(CC(C)C)cc4C)no3)cc2)CC1
PARAMETER_MEASURED: Ki
QUALIFIER_OPERATOR: =
MEAS_VALUE: 1130

COMPOUND: O=C(CCCOc1ccc(S(=O)(=O)C2(C(=O)NO)CCOCC2)cc1)Nc1ccc(OC(F)(F)F)cc1 [Example 250]
PARAMETER_MEASURED: Ki
QUALIFIER_OPERATOR: =
MEAS_VALUE: 3.12

COMPOUND: O=C(NO)C1(S(=O)(=O)c2ccc(OCCc3cccc(-c4ccc(F)cc4)c3)cc2)CCOCC1
PARAMETER_MEASURED: Ki
QUALIFIER_OPERATOR: =
MEAS_VALUE: 793

COMPOUND: CCCCc1ccc(-c2noc(CCCOc3ccc(S(=O)(=O)C4(C(=O)NO)CCOCC4)cc3)n2)c(C)c1
PARAMETER_MEASURED: Ki
QUALIFIER_OPERATOR: =
MEAS_VALUE: 643

COMPOUND: COCCN1CCC(C(=O)NO)(S(=O)(=O)c2ccc(OCCCc3nc(-c4ccc(CC(C)C)cc4)no3)cc2)CC1
PARAMETER_MEASURED: Ki
QUALIFIER_OPERATOR: =
MEAS_VALUE: 872

COMPOUND: COCCN1CCC(C(=O)NO)(S(=O)(=O)c2ccc(OCCCc3nc(-c4ccc(OC(F)(F)F)cc4)no3)cc2)CC1
PARAMETER_MEASURED: Ki
QUALIFIER_OPERATOR: =
MEAS_VALUE: 283

COMPOUND: CC(C)c1ccc(-c2cccc(CCCOc3ccc(S(=O)(=O)C4(C(=O)NO)CCOCC4)cc3)c2)cc1
PARAMETER_MEASURED: Ki
QUALIFIER_OPERATOR: >
MEAS_VALUE: 10000

COMPOUND: O=C(NO)C1(S(=O)(=O)c2ccc(OCCc3cccc(-c4ccc(Cl)c(Cl)c4)c3)cc2)CCOCC1
PARAMETER_MEASURED: Ki
QUALIFIER_OPERATOR: =
MEAS_VALUE: 4620

COMPOUND: COCCN1CCC(C(=O)NO)(S(=O)(=O)c2ccc(OCCCc3nc(-c4ccc(Br)cc4C)no3)cc2)CC1
PARAMETER_MEASURED: Ki
QUALIFIER_OPERATOR: =
MEAS_VALUE: 58.5

COMPOUND: O=C(NO)C1(S(=O)(=O)c2ccc(OCCCc3cccc(-c4ccc(OC(F)(F)F)cc4)c3)cc2)CCOCC1
PARAMETER_MEASURED: Ki
QUALIFIER_OPERATOR: >
MEAS_VALUE: 10000

COMPOUND: NC(=O)c1cccc(-c2noc(CCCOc3ccc(S(=O)(=O)C4(C(=O)NO)CCN(C5CC5)CC4)cc3)n2)c1
PARAMETER_MEASURED: Ki
QUALIFIER_OPERATOR: =
MEAS_VALUE: 50

COMPOUND: O=C(NO)C1(S(=O)(=O)c2ccc(OCCc3cccc(-c4cccc(F)c4)c3)cc2)CCOCC1
PARAMETER_MEASURED: Ki
QUALIFIER_OPERATOR: =
MEAS_VALUE: 769

COMPOUND: O=C(NO)C1(S(=O)(=O)c2ccc(OCCCc3cccc(-c4ccncc4)c3)cc2)CCOCC1
PARAMETER_MEASURED: Ki
QUALIFIER_OPERATOR: =
MEAS_VALUE: 84.1

COMPOUND: COc1ccc(-c2cccc(CCOc3ccc(S(=O)(=O)C4(C(=O)NO)CCOCC4)cc3)c2)cc1C
PARAMETER_MEASURED: Ki
QUALIFIER_OPERATOR: =
MEAS_VALUE: 1680

COMPOUND: O=C1Nc2ccc(-c3noc(CCCOc4ccc(S(=O)(=O)C5(C(=O)NO)CCN(C6CC6)CC5)cc4)n3)cc21
PARAMETER_MEASURED: Ki
QUALIFIER_OPERATOR: =
MEAS_VALUE: 96.4
